Tested on: M14
Assay: NCI tumour cell line growth inhibition, 48 h
Activity calls are given as the source filed them. Cut-off read from the data, not from the text of the source: active = GI50 up to about 1.1 µM and inactive = higher.
Give one outcome, nothing more. List: active, inactive

The examples below pair each entry with its known result.
COMPOUND	LABEL_VALUE
COc1cc(/C=C/C=C2\CC/C(=C\C=C\c3ccc(O)c(OC)c3)C2=O)ccc1O	inactive
CC(=O)OCC1OC(n2c(-c3ccc(C)cc3)cc(-c3ccco3)c(C#N)c2=S)C(OC(C)=O)C(OC(C)=O)C1OC(C)=O (stereo unspecified)	inactive
C/C(=C1/N=C(c2cc([N+](=O)[O-])ccc2Cl)N(c2ccc(Br)cc2)C1=O)c1cc2ccccc2oc1=O	inactive
Nc1nc(=O)c2c([nH]1)NCC(CCNc1ccc(C(=O)O)cc1)N2 (stereo unspecified)	inactive
CCC(O)CC1OC2(CCC1C)CC1OC(=O)/C=C\C(C)(O)C(O)C(C)C(O)C(OC3CC(OC)C(O)C(C)O3)C(O)C(C)(O)CCC/C=C/C3CC(C)COC3(O)CC(O2)C1C (stereo unspecified)	inactive
C=CCCCCCCCCC(=O)ON(Cc1ccc(O)c(OC)c1)C(=O)C(F)(F)F	inactive
Cc1ccc(/N=C2\C(=N/c3ccc(C)cc3)N(c3ccc(C)cc3)C(=S)N2C(=O)c2ccccc2)cc1	inactive
CC(C)C1COC(c2ccc3ccccc3c2-c2c(O[Si](C)(C)C(C)(C)C)ccc3ccccc23)=N1 (stereo unspecified)	inactive

Problem: Which result was noted for this compound in the test: CCCCN(CCCC)CCCn1cnc2ncccc2c1=O
Solution: inactive

Problem: Which result was noted for this compound in the test: C=Cc1cncc(C#N)c1CCc1c(C#N)cncc1C=C
Solution: inactive

Problem: Which result was noted for this compound in the test: N#CC(C#N)=c1c2nsnc2c(=C(C#N)C#N)c2nsnc12
Solution: inactive

Problem: Which result was noted for this compound in the test: CCOC(=O)C12CCCC1(O)N(NC(=O)OC)C(C)=C2C(=O)OC (stereo unspecified)
Solution: inactive

Problem: Which result was noted for this compound in the test: C=CCP(=O)(CC=C)C(Cl)Cl
Solution: inactive

Problem: Which result was noted for this compound in the test: O=C(O)c1cc2sc(C(=O)O)cc2s1
Solution: inactive

Source of measurements: ChEMBL document CHEMBL1201862
